These data points were gathered from patent US20180099931A1.

Target: F508delCFTR (Homo sapiens, UniProt P13569, DEL508-508)
Construct: expressed in transfected cells; host or cells: CFBE41o- human lung-derived epithelial cells (CFBE4lo-F508delCFTR-HRP), doxycycline-inducible
Sequence (P13569 with tags, fused parts or gaps DEL508-508): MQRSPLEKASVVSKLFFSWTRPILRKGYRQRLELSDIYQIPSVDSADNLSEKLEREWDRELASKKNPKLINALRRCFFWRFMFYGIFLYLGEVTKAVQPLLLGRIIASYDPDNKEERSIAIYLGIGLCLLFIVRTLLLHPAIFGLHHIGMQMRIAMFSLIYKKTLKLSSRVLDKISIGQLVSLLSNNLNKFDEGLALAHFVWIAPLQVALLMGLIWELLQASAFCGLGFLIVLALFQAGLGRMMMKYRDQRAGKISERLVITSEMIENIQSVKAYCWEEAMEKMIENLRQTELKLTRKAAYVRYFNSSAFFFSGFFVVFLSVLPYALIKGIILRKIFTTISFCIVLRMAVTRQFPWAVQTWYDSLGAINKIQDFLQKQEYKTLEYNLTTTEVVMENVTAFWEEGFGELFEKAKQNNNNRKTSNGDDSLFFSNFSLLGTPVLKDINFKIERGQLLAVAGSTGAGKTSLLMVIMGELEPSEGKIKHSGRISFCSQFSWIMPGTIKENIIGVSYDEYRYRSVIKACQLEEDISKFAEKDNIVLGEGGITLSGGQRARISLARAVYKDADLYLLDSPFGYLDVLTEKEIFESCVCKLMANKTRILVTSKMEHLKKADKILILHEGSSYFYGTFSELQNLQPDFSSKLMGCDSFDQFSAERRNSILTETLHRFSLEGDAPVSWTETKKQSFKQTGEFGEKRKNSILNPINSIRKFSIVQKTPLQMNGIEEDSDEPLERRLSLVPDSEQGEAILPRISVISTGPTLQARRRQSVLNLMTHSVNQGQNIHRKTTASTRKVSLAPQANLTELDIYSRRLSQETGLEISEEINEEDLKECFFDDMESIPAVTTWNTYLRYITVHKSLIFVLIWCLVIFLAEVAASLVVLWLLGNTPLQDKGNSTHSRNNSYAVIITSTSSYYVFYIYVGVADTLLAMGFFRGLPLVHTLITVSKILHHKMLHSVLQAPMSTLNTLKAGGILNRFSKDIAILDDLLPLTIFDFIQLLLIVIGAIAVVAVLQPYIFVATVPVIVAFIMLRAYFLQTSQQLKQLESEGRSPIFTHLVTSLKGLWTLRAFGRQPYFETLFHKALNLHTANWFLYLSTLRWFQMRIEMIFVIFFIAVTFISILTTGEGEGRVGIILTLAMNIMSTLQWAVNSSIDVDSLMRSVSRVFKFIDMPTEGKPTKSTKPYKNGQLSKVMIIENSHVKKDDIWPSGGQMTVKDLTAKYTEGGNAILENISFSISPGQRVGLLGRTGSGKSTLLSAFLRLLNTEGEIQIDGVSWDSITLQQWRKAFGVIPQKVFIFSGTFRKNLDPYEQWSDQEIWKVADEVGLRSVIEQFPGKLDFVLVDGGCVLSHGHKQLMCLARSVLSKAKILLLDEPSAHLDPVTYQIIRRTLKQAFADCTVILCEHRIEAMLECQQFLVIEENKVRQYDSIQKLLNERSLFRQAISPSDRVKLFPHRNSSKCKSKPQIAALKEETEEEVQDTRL
Assay: Cell Surface Expression-Horse Radish Peroxidase (CSE-HRP) Assay;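 note: percent of the 2 µM on-plate positive control corrector response above DMSO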
Format: cell-based
Settings: test compound without co-corrector; maximum at any tested concentration, normalized to on-plate positive control
MEASURED_METRIC: Maximum % activity (without co-corrector)

[[record]]
compound = "COc1ccc(C(C)(C)C)cc1CN[C@H]1[C@H](C(C)(C)C)[C@@H](C(=O)O)N(C(=O)C2COc3ccccc3O2)[C@H]1c1cccnc1N(C)C (single isomer, unassigned)"
recorded_value = "+ (<100)"

[[record]]
compound = "COc1ccc(C(C)(C)C)cc1CN[C@H]1[C@H](C(C)(C)C)[C@@H](C(=O)O)N(C(=O)C2CCc3ccc(F)cc3O2)[C@H]1c1cccnc1N(C)C (single isomer, unassigned)"
recorded_value = "+ (<100)"

[[record]]
compound = "COc1ccc(C(C)(C)C)cc1CN[C@H]1[C@H](C(C)(C)C)[C@@H](C(=O)O)N(C(=O)C2Cc3ccccc3CO2)[C@H]1c1cccnc1N(C)C (single isomer, unassigned)"
recorded_value = "++ (≥100 and <200)"

[[record]]
compound = "COc1ccc(C(C)(C)C)cc1CN[C@H]1[C@H](C(C)(C)C)[C@@H](C(=O)O)N(C(=O)C2CCc3cc(F)ccc3O2)[C@H]1c1cccnc1N(C)C (stereo partly shown)"
recorded_value = "++ (≥100 and <200)"

